target: Human cGAS amino acids 155-522 (Homo sapiens (Human), UniProt Q8N884); assay: cGAS biochemical activity assay (ATP remaining, Kinase-Glo Max luminescence); settings: human cGAS 155-522, ATP remaining (Kinase-Glo Max); read-out: cGAS IC50
Sequence (Q8N884 157-522): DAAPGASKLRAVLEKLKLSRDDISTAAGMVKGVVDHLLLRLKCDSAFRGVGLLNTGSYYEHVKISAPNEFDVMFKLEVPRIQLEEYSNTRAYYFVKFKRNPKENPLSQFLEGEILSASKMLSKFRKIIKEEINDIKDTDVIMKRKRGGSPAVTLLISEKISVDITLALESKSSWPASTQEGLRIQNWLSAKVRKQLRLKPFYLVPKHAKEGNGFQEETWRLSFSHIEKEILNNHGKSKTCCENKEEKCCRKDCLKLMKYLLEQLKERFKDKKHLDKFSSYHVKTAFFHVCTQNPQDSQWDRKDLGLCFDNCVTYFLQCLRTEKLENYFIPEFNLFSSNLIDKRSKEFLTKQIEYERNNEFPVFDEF
pIC50: −log10 of the molar value.
Listing of entries alongside the reported pIC50.
MEASURED QUANTITY: pIC50

smi=COc1cccc2oc(-c3c(C)[nH]c4c(-c5ccccc5)c(C(F)F)nn4c3=O)nc12 measured_quantity=pIC50 val="> 4.70"
smi=Cc1[nH]c2c(-c3ccccc3)c(C(F)(F)F)nn2c(=O)c1-c1nnc(-c2ccc([N+](=O)[O-])cc2)o1 measured_quantity=pIC50 val="3.60 to 4.70"
smi=Cc1[nH]c2c(-c3ccccc3)c(C(F)(F)F)nn2c(=O)c1-c1nc2c(O)cccc2o1 measured_quantity=pIC50 val="> 4.70"
smi=COc1cccc2oc(-c3c(COCCO)[nH]c4c(-c5ccccc5)c(C(F)(F)F)nn4c3=O)nc12 measured_quantity=pIC50 val="> 4.70"

====

biological target: Human cGAS amino acids 155-522 (Homo sapiens (Human)); assay: cGAS biochemical activity assay (ATP remaining, Kinase-Glo Max luminescence); settings: human cGAS 155-522, ATP remaining (Kinase-Glo Max); read-out: cGAS IC50
pIC50: −log10 of the molar value.
MEASURED QUANTITY: pIC50

smi=COc1cc(CO)cc2oc(-c3c(C)[nH]c4c(-c5ccccc5)c(C#N)nn4c3=O)nc12 measured_quantity=pIC50 val="> 4.70"
smi=Cc1[nH]c2c(-c3ccccc3)c(C(F)(F)F)nn2c(=O)c1-c1nnc(-c2ccccc2N)o1 measured_quantity=pIC50 val="3.60 to 4.70"
smi=Cc1[nH]c2c(-c3ccccc3)c(C(F)(F)F)nn2c(=O)c1-c1nnc(C2(N)CCCC2)o1 measured_quantity=pIC50 val="> 4.70"
smi=Cc1[nH]c2c(-c3ccccc3)c(C(F)(F)F)nn2c(=O)c1-c1nnc(C2=NCCCN2)o1 measured_quantity=pIC50 val="> 4.70"
smi=COc1cccc2oc(-c3c(C)[nH]c4c(-c5ccccc5)c(OCC(=O)O)nn4c3=O)nc12 measured_quantity=pIC50 val="3.60 to 4.70"
smi=COc1cc(N)c(Cl)c2oc(-c3c(C)[nH]c4c(-c5ccccc5)c(C#N)nn4c3=O)nc12 measured_quantity=pIC50 val="> 4.70"
smi=COc1cc(N(C)C)cc2oc(-c3c(C)[nH]c4c(-c5ccccc5)c(C(F)(F)F)nn4c3=O)nc12 measured_quantity=pIC50 val="> 4.70"
smi=COc1cccc2oc(-c3c(Cn4ccnc4)[nH]c4c(-c5ccccc5)c(C(F)(F)F)nn4c3=O)nc12 measured_quantity=pIC50 val="> 4.70"
smi=COc1cccc2oc(-c3c(P(C)(C)=O)[nH]c4c(-c5ccccc5)c(C(F)(F)F)nn4c3=O)nc12 measured_quantity=pIC50 val="> 4.70"
smi=Cc1[nH]c2c(-c3ccccc3)c(C(F)(F)F)nn2c(=O)c1-c1nnc(C2CCN(C(=O)OC(C)(C)C)CC2)o1 measured_quantity=pIC50 val="3.60 to 4.70"
smi=Cc1[nH]c2c(-c3ccccc3)c(C(F)(F)F)nn2c(=O)c1-c1nc2ccccc2n1CC1CCCC1 measured_quantity=pIC50 val="3.60 to 4.70"
smi=COc1cccc2c(=O)[nH]c(-c3c(C)[nH]c4c(-c5ccccc5)c(C(F)(F)F)nn4c3=O)nc12 measured_quantity=pIC50 val="> 4.70"
smi=COc1cccc(NC(=O)c2c(C)[nH]c3c(-c4ccccc4)c(SC)nn3c2=O)c1 measured_quantity=pIC50 val="3.60 to 4.70"
